Recorded normalized growth values for a group of molecules are listed next.
assay: chemical genetic growth profiling, strain panel (AID 1159580);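 further: tested at 20 µM; growth read once vehicle control cultures reached saturation at 30 °C; 1 = growth at the plate median or of vehicle wells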
measurementParameters: S. cerevisiae deletion strains, growth OD, locus YGR078C, strain PAC10, stronger effect = lower value
In all, about 5,500 compounds went through this assay and about 2,000 (36%) were called active. Roughly 18% stayed inconclusive and do not appear here. The list shows a part of the results.
Write the number on its own, no unit after it.

Here's what some known entries look like.
>>> df
                                   molecule   reportedendpoint  resultvalue
0  CC1(C)C2CC[C@]3(C)C(C(=O)C=C4[C@@H]5C[C@@](C)(C(=O)O)CC[C@]5(C)CC[C@]43C)[C@@]2(C)CC[C@@H]1O (some centres undefined)  normalized growth         1.02
1                 CCCC(C)(SCC(=O)O)SCC(=O)O  normalized growth         1.02
2                    CCCCCCCCCCCCCCSCC(=O)O  normalized growth        0.998
3            CC(C)(C)OC(=O)N1CCC(C(N)=O)CC1  normalized growth         1.01

Any idea what normalized growth was measured for CSC(=N)N ? 1.01

Ok, now Nc1nc(Cl)nc2c1ncn2[C@@H]1O[C@H](CO)[C@H](O)C1O (some centres undefined) 1.01

###

assay: chemical genetic growth profiling, strain panel (AID 1159580)
measurementParameters: S. cerevisiae deletion strains, growth OD, locus YNL153C, strain GIM3, stronger effect = lower value
Screen size: about 5,500 compounds; about 2,000 (36%) were called active. Another 18% or so got no clear call; they are omitted. The list shows a part of the results.
reportedEndpoint: normalized growth
Write the number on its own, no unit after it.

Here's what some known entries look like.
In [3]: df
Out[3]:
                                   compound   reportedendpoint  resultvalue
0                   CCCCOc1cc(C(=O)O)ccc1OC  normalized growth        0.979
1  O=C(O)C1CC([C@@H]2CCCCN2)CN2CCCCC12 (some centres not stated)  normalized growth         1.07
2  COc1cc2c(cc1OC)C(=O)C(CC1CCN(Cc3ccccc3)CC1)C2 (configuration not stated)  normalized growth        0.876
3              COc1ccc(C(=O)c2ccccc2)c(O)c1  normalized growth        0.937
4  COc1ccc(C2CC(=O)c3ccc(OC)cc3O2)cc1 (configuration not stated)  normalized growth        0.847
5  CNC1(C)C2CCC(C2)C1(C)C (configuration not stated)  normalized growth        0.962
6  CCCCCCCCCCCCCCCCCCOC[C@H](COP(=O)([O-])OCC[N+](C)(C)C)OC  normalized growth        0.997
7  CN1C2CC3C[C@H]1C(O3)C2O (some centres not stated)  normalized growth         1.01

Any idea what normalized growth was measured for COc1ccc(OC)c(C(=O)c2cc(OC)c(OC)c(OC)c2)c1 ? 1.01

Ok, now CN1C/C(=C\c2ccccc2Cl)C(=O)/C(=C/c2ccccc2Cl)C1 0.958

Ok, now O=C1C[C@@H](c2ccc(O)cc2)Oc2cc(O)cc(O)c21 1.01

Ok, now O=C(O)c1cc(=O)c2ccc(Cl)cc2[nH]1 1.04

###

assay: chemical genetic growth profiling, strain panel (AID 1159580)
measurementParameters: S. cerevisiae deletion strains, growth OD, locus YKR001C, strain vps1
The campaign covered roughly 5,500 compounds. About 2,000 (36%) were called active. Roughly 18% stayed inconclusive and do not appear here. No stated cut-off is given here; in the data, active means normalized growth mostly below about 0.91 (no sharp cut-off); inconclusive means no clear call, values can overlap the other calls; inactive means mostly above about 0.92. Some of the results follow.
Can you answer with just one of these options? 1 for active, -1 for inactive

Use the examples below as a reference point.
>>> df
                            structuresmiles  assignedcategory
0  CC(C)(C)CC(C)(C)c1ccc(OCCOCC[N+](C)(C)Cc2ccccc2)cc1                 1
1                       C=CCc1ccc2c(c1)OCO2                -1

Turning to the following compound.
I'd appreciate the recorded outcome for CCCCCCCCCCCCC[N+](C)(C)Cc1ccccc1 from this test. 1

###

assay: chemical genetic growth profiling, strain panel (AID 1159580)
measurementParameters: S. cerevisiae deletion strains, growth OD, locus YHR200W, strain rpn10, stronger effect = lower value
In all, about 5,500 compounds went through this assay and about 2,000 (36%) were called active. Another 18% or so got no clear call; they are omitted. Some of the results follow.
reportedEndpoint: normalized growth
Write the number on its own, no unit after it.

Here's what some known entries look like.
compound	normalized growth
CC(=O)O[C@]1(C(C)=O)CCC2C3C[C@H](C)C4=CC(=O)CC[C@]4(C)C3CC[C@@]21C (stereo not given in full)	0.982
CC(C)CC1C(=O)N2CCC[C@H]2C2(O)O[C@](NC(=O)C3C=C4c5cccc6[nH]c(Br)c(c56)C[C@H]4N(C)C3)(C(C)C)C(=O)N12 (stereo not given in full)	0.976
CC1(C)S[C@@H]2[C@H](NC(=O)[C@H](NC(=O)N3CCNC3=O)c3ccccc3)C(=O)N2C1C(=O)O (stereo not given in full)	0.989
CN1C2CC3C[C@H]1C(O3)C2O (stereo not given in full)	1.02

Next up:
Any idea what normalized growth was measured for CC(=O)[C@H]1CCC2C3C[C@H](C)C4=CC(=O)CC[C@]4(C)C3[C@@H](O)C[C@@]21C (stereo not given in full) ? 0.981

###

Recorded normalized growth values for a group of compounds are listed next.
assay: chemical genetic growth profiling, strain panel (AID 1159580);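 further: tested at 20 µM; growth read once vehicle control cultures reached saturation at 30 °C; 1 = growth at the plate median or of vehicle wells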
measurementParameters: S. cerevisiae deletion strains, growth OD, locus YDR159W, strain sac3, stronger effect = lower value
About 2,000 (36%) of roughly 5,500 compounds were called active. About 18% were inconclusive and are not listed. The list shows a part of the results.
Write the number on its own, no unit after it.

compound	normalized growth
COc1ccc2cc1Oc1ccc(cc1)C[C@H]1c3cc(c(OC)cc3CCN1C)Oc1c(OC)c(OC)cc3c1[C@H](C2)N(C)CC3	1.02

Any idea what normalized growth was measured for COc1ccc(C2CC(=O)c3ccc(OC)cc3O2)cc1 (centres undefined) ? 0.929

Ok, now O=C1CC(c2ccc(O)c(O)c2)Oc2cc(O)cc(O)c21 (centres undefined) 0.995

Ok, now O=C1C[C@@H](c2ccc(O)cc2)Oc2cc(O)cc(O)c21 0.942

Ok, now CC(C(=O)O)c1ccc2c(c1)[nH]c1ccc(Cl)cc12 (centres undefined) 0.895

Ok, now CCCCOc1ccc(CC(=O)NO)cc1 0.96

Ok, now CC(=O)CC(=O)CCC(=O)O 1

Ok, now CN1CCc2cc3c(cc2C1O)OCO3 (centres undefined) 0.946

Ok, now CC(C)CC1C(=O)N2CCC[C@H]2C2(O)O[C@](NC(=O)C3C=C4c5cccc6[nH]c(Br)c(c56)C[C@H]4N(C)C3)(C(C)C)C(=O)N12 (some centres undefined) 0.989

###

Recorded normalized growth values for a group of molecules are listed next.
assay: chemical genetic growth profiling, strain panel (AID 1159580);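 further: tested at 20 µM; growth read once vehicle control cultures reached saturation at 30 °C; 1 = growth at the plate median or of vehicle wells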
measurementParameters: S. cerevisiae deletion strains, growth OD, locus YLR258W, strain gsy2, stronger effect = lower value
The whole screen tested about 5,500 compounds, of which about 2,000 (36%) were called active. Not shown: some 18% with an inconclusive outcome. The list shows a part of the results.

Here's what some known entries look like.
molecule	reportedEndpoint	resultValue
CC(C)[N+](C)(CCOC(=O)C1c2ccccc2Oc2ccccc21)C(C)C	normalized growth	1.02 (inactive)
NC[C@@H]1O[C@H](O[C@@H]2[C@@H](CO)OC(O[C@@H]3[C@@H](O)[C@H](N)C[C@H](N)[C@H]3OC3O[C@H](CN)[C@@H](O)[C@H](O)[C@H]3N)[C@@H]2O)[C@H](N)[C@@H](O)[C@@H]1O (some centres undefined)	normalized growth	1.01 (inactive)
CCc1nc(N)nc(N)c1-c1ccc(Cl)cc1	normalized growth	0.98 (inactive)

Any idea what normalized growth was measured for OCc1ccccc1O[C@@H]1O[C@H](CO)[C@@H](O)[C@H](O)[C@H]1O ? 0.977 (inactive)

###

assay: chemical genetic growth profiling, strain panel (AID 1159580);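 further: tested at 20 µM; growth read once vehicle control cultures reached saturation at 30 °C; 1 = growth at the plate median or of vehicle wells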
measurementParameters: S. cerevisiae deletion strains, growth OD, locus YKL009W, strain mrt4, stronger effect = lower value
The whole screen tested about 5,500 compounds, of which about 2,000 (36%) were called active. Roughly 18% stayed inconclusive and do not appear here. The list shows a part of the results.
Class boundaries, taken from values of normalized growth, are as follows: bucket A = under 0.9, bucket B = from 0.9 up to 1, bucket C = 1 and over

Use the examples below as a reference point.
>>> df
                                   molecule  assignedcategory
0                O=C(O)COc1cc(Cl)c(Cl)cc1Cl          bucket C
1  CC(C)(C)CC(C)(C)c1ccc(OCCOCC[N+](C)(C)Cc2ccccc2)cc1          bucket B
2  C=C1CC[C@H](O)C/C1=C/C=C1\CCC[C@]2(C)C([C@H](C)/C=C/[C@H](C)C(C)C)CC[C@@H]12 (stereo not given in full)          bucket B
3              CCOC(=O)/C=C(\C)OP(=O)(OC)OC          bucket B

Turning to the following molecule.
Hey, which category is CN1CCc2cc3c(cc2C1O)OCO3 (stereo not given) in, do you know? bucket B

These entries and their values trace back to PubChem BioAssay AID1159580.
